System: M14 melanoma
Assay: NCI-60 one-dose screen, 48 h
Conditions: 10 µM unless noted
Compounds without any hit were thinned out: in the full panel of roughly 83,000, 20% have a hit. Active and inactive are the calls of the source. The calls were made as follows: active = growth percent below 10; inactive = the rest.
Outcome (select one): Yes = active, No = inactive

Worked examples follow.
# molecule, class
measured = [
    ("ClC1C2CC(c3ccccc32)C1Cl (stereo not given)", "No"),
    ("CSc1ccc2c(c1)N(CCC1CCCCN1C)c1ccccc1S2 (stereo not given)", "Yes"),
    ("O=C(Nc1ccccc1Cl)c1cnc2ccc(C3CCNCC3)cn12", "No"),
    ("COc1ccc2nc(-c3ccc(-n4cncc4-c4ccc(OC)c(N)c4)cc3)sc2c1", "No"),
]

### Prompt Identify the outcome logged in this assay for the molecule shown: O=C(Nc1ccncc1)C(=O)c1cn(S(=O)(=O)c2cccc(F)c2)c2ccccc12
### Response No

### Prompt Hi, sorry to bother you, what did the test record for COc1cc(/C=C/C(=O)Nc2ccc3c(c2)/C(=C\c2cccn2C)C(=O)N3)cc(OC)c1OC ?
### Response No

### Prompt Record lookup: outcome of this test for COc1ccc2[nH]cc(/C=C3/C(=O)Nc4ccc(Cl)cc43)c2c1 ?
### Response No

### Prompt Tell me the assay call for C=CCOc1ccc2c(c1)CC[C@@H]1[C@@H]2CC[C@@]2(C)[C@H]1CC[C@]2(C)O please.
### Response No

### Prompt // return assay outcome for CCCCC1Nc2nc(SC)n(C)c(=O)c2CN(Cc2ccccc2)C1=O (stereo not given)
### Response No

### Prompt For COc1ccc(-c2oc3cc(O)c(OC)c(O)c3c(=O)c2OC)cc1O , what call appears in the results of this test?
### Response Yes

###

System: OVCAR-4 ovarian
Test: NCI-60 one-dose screen, 48 h (100 = growth as untreated, 0 = no growth, -100 = all killed)
Conditions: 10 µM unless noted
This is part of a sample that, as a whole, favours compounds with a hit. Of some 83,000 tested, about 20% had one in any assay.
measured-property: growth (%)
Output spec: scalar in %, unitless text.

Some entries whose results are on file:
# compound, unit-abbreviation, growth
data = [
    ("C=Cc1nn2c(CCC(=O)c3nc4ccccc4[nH]3)nnc2s1", "%", 110),
    ("Nc1ccc(C2=NN(c3ccccc3)C(c3ccc(Cl)cc3)C2)cc1 (stereo not given)", "%", 96.7),
    ("Cc1ccc(NC(=O)Nc2ccc(-c3cccnc3)cc2N2CCC(CO)CC2)cc1", "%", 45),
    ("COC(=O)[C@]12CC[C@@H](C)[C@H](C)[C@@H]1C1=CC[C@@H]3[C@@]4(C)C[C@@H](OC(=O)c5ccco5)[C@H](O)[C@@](C)(CO)[C@@H]4[C@H](O)C[C@@]3(C)[C@]1(C)CC2", "%", -67.9),
    ("Cc1nc2cc(NC(=O)CN3CCN(CCN4C(=O)c5cccc6cccc(c56)C4=O)CC3)ccc2s1", "%", 61.4),
    ("O=C1/C(=C/c2ccc([N+](=O)[O-])o2)Oc2ccc(Br)cc21", "%", 5.15),
]

### Prompt Provide one value: measured growth of COc1cccc(/C=C2\COc3ccc(O)c(O)c3C2=O)c1OC
### Response 35.3

### Prompt Using known records, supply growth for CCC(C)CC(C)C(=O)c1c(O)ccn(OC)c1=O (stereo not given)
### Response 44.9

### Prompt Consider the compound CCCCCCCCCCSc1ncnc2nc[nH]c12 . State its measured growth.
### Response 61.3

### Prompt Give a short answer stating reported growth for Cc1nn(-c2ccccc2)c2c1oc(=O)c1cc(Cl)ccc12 .
### Response 113

###

Test system: MDA-MB-435 melanoma
Assay: NCI-60 one-dose screen, 48 h
Conditions: 10 µM unless noted
Description: Growth inhibition of the MDA-MB-435 human Melanoma tumor cell line is measured as a screen for anti-cancer activity. Cells are grown in 96 well plates and exposed to the test compound for 48 hours. Compounds are tested at a single concentration, which is 10^-5 M for most compounds. The reported endpoint is percent growth (GI% or GIPRCNT), where numbers from 0 - 100% represent growth inhibition, and numbers from -100% - 0 represent cell death. […]
The panel holds about 83,000 compounds, 20% with a hit somewhere; the sample as a whole holds those more often. Activity calls are given as the source filed them. How the source made its calls: active means growth percent below 10; inactive means the rest.
// allowed return values: 1 (active), 0 (inactive)

Would you please look over these solved cases?
# compound, target-system, class
rows = [
    ("COc1ccc(CCN2CCCN3C2=Nc2ccccc2S3(=O)=O)cc1", "MDA-MB-435 melanoma", 1),
    ("O=C(/C(=C/c1cccc([N+](=O)[O-])c1)c1ccccc1)c1ccccc1", "MDA-MB-435 melanoma", 1),
    ("COc1ccc(C2CC(c3ccc(OC)c(OC)c3)=NN2C(=O)c2cc(OC)c(OC)c(OC)c2)c(OC)c1 (stereo not given)", "MDA-MB-435 melanoma", 1),
    ("CN(C)c1ccc(/C=C(\\C#N)c2nc3ccccc3c(=O)[nH]2)cc1", "MDA-MB-435 melanoma", 0),
    ("Cc1nn(-c2ccc(Cl)cc2)c2nc3c(nc12)C(=O)c1ccccc1-3", "MDA-MB-435 melanoma", 0),
]

### Prompt Recorded call for CC1=NN(c2ccccc2Cl)C(=O)/C1=C\c1cn(S(=O)(=O)c2ccc(C)cc2)c2ccccc12 ?
### Response 0

### Prompt Recorded call for Cc1ccc(C(=O)Nc2ccc(Cl)cc2C(=O)NCc2ccccc2)cc1 ?
### Response 1

### Prompt // return assay outcome for Cc1ccc(C(O)C2=CC(=O)c3ccccc3C2=O)cc1 (stereo not given)
### Response 0

### Prompt I'd appreciate the recorded outcome for Nc1nonc1-c1nc2ccccc2n1CC(=O)Nc1ccc2c(c1)COC2=O from this test.
### Response 1

### Prompt Write down the call the test reported for this compound. Item: Oc1ccccc1C=Nc1ccccc1N=Cc1ccccc1O.[Cu+2]
### Response 0

###

System: MCF7 breast
Assay: NCI-60 one-dose screen, 48 h (100 = growth as untreated, 0 = no growth, -100 = all killed)
Details: 10 µM unless noted
Compounds without any hit were thinned out: in the full panel of roughly 83,000, 20% have a hit.
Kindly return rule met if reported growth is no lower than 20%; return rule not met if it is lower.

The examples below pair each entry with its known result.
# compound, class
records = [
    ("COc1cc(C2CC(=O)Nc3c2cc(Br)c2ccccc32)cc(Br)c1OC (centres undefined)", "rule not met"),
    ("S=C1SCN(Cc2ccccc2)CN1Cc1ccco1", "rule not met"),
    ("CC/C(=C\\c1ccc(N(C)C)cc1)c1ccncc1", "rule met"),
]

### Prompt # check: growth of O=C(/C=C/c1cc2ccccc2[nH]c1=O)c1ccc(O)cc1 is greater than or equal to 20%
### Response rule not met

### Prompt Does growth meet or surpass 20% for CSc1ncc2ncn(C3OC(CO)C(O)C3O)c2n1 (centres undefined) ?
### Response rule met

###

Parameter: growth. Scope: all listed entries.
Tested on: SF-295 CNS
Assay: NCI-60 one-dose screen, 48 h (100 = growth as untreated, 0 = no growth, -100 = all killed)
Settings: 10 µM unless noted
Compounds without any hit were thinned out: in the full panel of roughly 83,000, 20% have a hit.
# number only, unit % dropped from output

Recorded results for 3 molecules are shown here.
# molecule, measurement
measured = [
    ("CCCCSc1cc(C)nc(N)n1", 102),
    ("C=Cc1nn2c(CCC(=O)c3nc4ccccc4[nH]3)nnc2s1", 99.7),
    ("O=C(O)c1ccc(NC(=O)c2cccc(Nc3ccnc(C(F)(F)F)c3)c2)cc1", 88.8),
]

### Prompt Fill in growth for record CCOc1cc(C(C)(C)C)ccc1C1=N[C@H](c2ccc(Cl)cc2)[C@H](c2ccc(Cl)cc2)N1C(=O)N1CCN(CC#Cc2cccc3c2CN([C@@H]2CCC(=O)NC2=O)C3=O)CC1
### Response 35.1

### Prompt Quickly give me recorded growth for CC(C)[C@]12O[C@H]1[C@@H]1O[C@]13[C@]1(O[C@H]1C[C@H]1C4=C(CC[C@@]13C)C(=O)OC4)[C@@H]2OC(=O)CN(C)C
### Response -27.6

### Prompt Specify measured growth for OC(c1cc(C(F)(F)F)nc2c(C(F)(F)F)cccc12)C1CCCCN1 (centres undefined) .
### Response 88.2

### Prompt Input O=C(Nc1nc2ccccc2s1)c1cc(-c2ccc(F)cc2)n2nc(-c3ccccc3)cc2n1 , output reported growth.
### Response 40.3

### Prompt Read off the recorded growth for COc1ccc(/C=C/C(=O)Nc2cccnc2Nc2ccc(F)cc2)cc1
### Response 87.9

### Prompt Respond only with growth recorded for Oc1ccc(-c2nn(-c3ccccc3)cc2-c2nc3ccccc3s2)cc1
### Response 106

### Prompt Quote growth reported for COc1c(C)c2c(c(O)c1C/C=C(\C)CCC(=O)OCCN1CCOCC1)C(=O)OC2 please.
### Response 18.2

### Prompt Retrieve growth measured for Cc1cc(NCCCNc2ccnc3cc(Cl)ccc23)nc(N2CCN(C)CC2)n1 and print it.
### Response 61

### Prompt Return growth (reported value) for this molecule: NC(=O)NN=C(C1CC1)C1CC1
### Response 106

### Prompt Report measured growth; entry is CC(c1ccccn1)C(C)(O)C(C)c1ccccn1 (centres undefined)
### Response 107

### Prompt Identify growth associated with the molecule CCC1(c2ccccc2)Oc2ccccc2-n2c(C#N)c3ccccc3c2C1=O (centres undefined)
### Response 93.3

### Prompt Fill in reported growth for this entry: CC/C=C\C=C/C(=O)N/C=C/CC1Cc2cccc(O)c2C(=O)O1 (centres undefined)
### Response 262

### Prompt Tell me growth reported for COC(=O)[C@]1(C(C)C)N[C@H](c2cn(-c3ccccc3)nc2-c2ccccc2)[C@@H]2C(=O)N(c3ccc(Cl)cc3)C(=O)[C@@H]21
### Response 106

### Prompt Output measured growth for this item: COc1ccc2[nH]c(-c3ccccc3)cc2c1
### Response 105

### Prompt Tell me measured growth for C/C(=C\CCc1ccoc1)CC/C=C(\C)CCCN1CCC(CO)CC1 please.
### Response 47.4

### Prompt Give growth for Cn1c(=O)c2c(nc(Br)n2CCC(=O)Nc2ccc(F)cc2)n(C)c1=O
### Response 104

### Prompt Tell me growth reported for O=C(CSc1nnc(Nc2ccccc2)s1)NCCc1ccc(F)cc1
### Response 102

### Prompt Return reported growth. Input molecule: COc1ccc(OC)c(NC(=O)c2cc3oc4ccccc4c3cc2O)c1
### Response 92

### Prompt Look up and state reported growth for CCN(CC)CCCCNc1c2ccccc2[n+](C)c2c1[nH]c1ccccc12
### Response -47.1

### Prompt Find the measured growth of Cc1ccsc1/C=C/C1=NCCCN1C and report it.
### Response 95.6

### Prompt Read the entry CCOc1nc(-c2ccccc2)cc2c(O)c(-c3nnco3)[nH]c(=O)c12 and write its reported growth.
### Response 36

### Prompt # return recorded growth for entry NC(N)=NN=c1c(=O)c2ccccc2c1=O
### Response 66

### Prompt Indicate its recorded growth; the molecule in question is c1ccc(-c2nn[nH]n2)c(-c2ccc(CN3CCN(c4nsc5ccccc45)CC3)cc2)c1
### Response 94.1

### Prompt Using known records, supply growth for COc1cc2c(c(OC)c1OC)-c1ccc(NN(C(=O)c3ccccc3)C(=O)c3ccccc3)c(=O)cc1[C@@H](NC(C)=O)CC2 (tested in a mixture with another compound)
### Response -30.7

### Prompt // fetch growth given entry COc1cc(C2=NN(C(C)=O)C(c3ccc(OC(C)=O)cc3OC(C)=O)O2)c(OC(C)=O)c2ccccc12 (centres undefined)
### Response 22.2
